# System: Fibroblast
# experimental protocol: Incucyte cell viability with human fibroblast; note: filed as whole numbers so only -1 and 0 and 1 occur
# Type: toxicity, cell-based
# particulars: 18 h, 10 µM, compound concentration 10 uM, replicate number 1, timepoint 18 hours
Catalogue of Growth Rate values
A bare number is all that is needed in reply.

Solved cases (3 shown):
mol smiles: C=C1/C(=C\C=C2/CCC[C@]3(C)[C@@H]([C@H](C)/C=C/[C@H](C)C(C)C)CC[C@@H]23)C[C@@H](O)C[C@@H]1O
numeric result: 1
//
mol smiles: N#Cc1c[nH]c2c(C(=O)N3CCN(CCc4ccc(F)cc4)CC3)cccc12
numeric result: 0
//
mol smiles: O=C(Nc1nc2cccc(-c3ccc(CN4CCS(=O)(=O)CC4)cc3)n2n1)C1CC1
numeric result: 0

Req: In one line, give reported Growth Rate of the entry "CC(=O)N1CCC(c2ccc(C(=O)NC(=N)N)cc2C(F)(F)F)CC1" .
Resp: 1

---

Catalogue of Population Mitotic Cells (%) values
# Tested on: U2OS
# experimental protocol: Multiplex assay against U2OS
# Type: toxicity, cell-based
# particulars: human, 24 h, 1 µM, compound concentration 1 uM, replicate 2
Give just the number in %; leave the unit off.

Solved cases (4 shown):
mol smiles: Cl.Oc1ccc2c3c1O[C@H]1c4[nH]c5c(c4C[C@@]4(O)[C@@H](C2)N(CC2CC2)CC[C@]314)C[C@@]1(O)[C@H]2Cc3ccc(O)c4c3[C@@]1(CCN2CC1CC1)[C@H]5O4
experimental target: U2OS
measurement unit: %
numeric result: 75
//
mol smiles: NC(=O)c1cccc(-c2cc(Nc3ccc(OC(F)(F)F)cc3)ncn2)c1
experimental target: U2OS
measurement unit: %
numeric result: 80
//
mol smiles: CCCS(=O)(=O)Nc1ccc(F)c(C(=O)c2c[nH]c3ncc(Cl)cc23)c1F
experimental target: U2OS
measurement unit: %
numeric result: 88
//
mol smiles: Cc1cc(C)c(S(=O)(=O)N(Cc2ccc(-c3cccc(S(C)(=O)=O)c3)cc2)Cc2ccc(C(F)(F)F)o2)c(C)c1
experimental target: U2OS
measurement unit: %
numeric result: 100

Req: In one line, give reported Population Mitotic Cells (%) of the entry "O=C(Nc1ccc(-c2ccnc(Nc3ccc(N4CCOCC4)cc3)n2)cc1)[C@@H]1CCCN1" .
Resp: 40

Req: In one line, give reported Population Mitotic Cells (%) of the entry "CNc1cc(Oc2cc(C(=O)Nc3cc(N4CCN(C)CC4)cc(C(F)(F)F)c3)ccc2C)ncn1" .
Resp: 50

Req: In one line, give reported Population Mitotic Cells (%) of the entry "O=C1NC(=O)C(c2cnc3ccccn23)=C1c1cn2c3c(cc(F)cc13)CN(C(=O)N1CCCCC1)CC2" .
Resp: 20

Req: In one line, give reported Population Mitotic Cells (%) of the entry "O=C(Nc1ccc(Cl)cc1)Nc1cccc(-c2cccc(N3CCCC3)n2)c1" .
Resp: 80

---

# Test system: U2OS
# experimental protocol: Multiplex assay against U2OS
# Assay type: toxicity, cell-based
# particulars: human, 48 h, 1 µM, compound concentration 1 uM, replicate 2
Catalogue of Population Tubulin-Different-Phenotype (%) values
Give just the number in %; leave the unit off.

Solved cases (2 shown):
compound: O=C(Cc1ccc(-c2ccc(OCCN3CCOCC3)cc2)cn1)NCc1ccccc1
numeric result: 35

compound: CCCS(=O)(=O)c1nc(NC2CC2)cc(-c2ccc3c(ccn3C3CC(C)(C)NC(C)(C)C3)c2)n1
numeric result: 23

Req: In one line, give reported Population Tubulin-Different-Phenotype (%) of the entry "O=C1NC(=O)C(c2cnc3ccccn23)=C1c1cn2c3c(cc(F)cc13)CN(C(=O)N1CCCCC1)CC2" .
Resp: 19

Req: In one line, give reported Population Tubulin-Different-Phenotype (%) of the entry CN1CCC(=C2c3ccccc3CC(=O)c3sccc32)CC1.O=C(O)/C=C/C(=O)O [KETOTIFEN FUMARATE] .
Resp: 7

---

# System: HEK-293T
# experimental protocol: Multiplex assay against HEK293T
# Type: toxicity, cell-based
# particulars: human, 12 h, 1 µM, compound concentration 1 uM, replicate 2
property name: Population Fragmented Nuclei (%)
Give just the number in %; leave the unit off.

Solved cases (3 shown):
mol smiles: CCCn1c(=O)c2[nH]c(-c3cnn(Cc4cccc(C(F)(F)F)c4)c3)nc2n(CC)c1=O
experimental target: HEK-293T
measurement unit: %
Population Fragmented Nuclei (%): 7
//
mol smiles: C=CCn1c(=O)c2cnc(Nc3ccc(N4CCN(C)CC4)cc3)nc2n1-c1cccc(C(C)(C)O)n1
experimental target: HEK-293T
measurement unit: %
Population Fragmented Nuclei (%): 7
//
mol smiles: Cc1cn(-c2cc(NC(=O)c3ccc(C)c(Nc4nccc(-c5cccnc5)n4)c3)cc(C(F)(F)F)c2)cn1
experimental target: HEK-293T
measurement unit: %
Population Fragmented Nuclei (%): 7

Next item in the queue.
Req: In one line, give reported Population Fragmented Nuclei (%) of the entry "CN1CCN(C(=O)C(C)(C)c2ccc(C(=O)Nc3cn4cc(-c5cc(C(C)(C)C)cc(C(C)(C)C)c5)ccc4n3)cc2)CC1" .
Resp: 6

---

# Test system: Fibroblast
# experimental protocol: Incucyte cell viability with human fibroblast; note: filed as whole numbers so only -1 and 0 and 1 occur
# Assay type: toxicity, cell-based
# particulars: 12 h, 10 µM, compound concentration 10 uM, replicate number 2, timepoint 12 hours
Catalogue of Growth Rate values
A bare number is all that is needed in reply.

compound: CC(C)NC(=O)c1ccc(C#Cc2ccncc2)cn1
Growth Rate: 1
//
compound: OCCn1cc(-c2cnc3nnn(Cc4ccc5ncccc5c4)c3n2)cn1 [PF-04217903]
Growth Rate: 0
//
compound: CC[C@@H]1CN2C(=O)N(C)c3nc(-c4ccccc4)[nH]c3C2=N1.Cl
Growth Rate: 0
//
compound: Cc1cc([C@@H](C)Nc2cccc(-c3cc(C)c(C(=O)N[C@@H](C)C(=O)O)c(C)c3)c2)ccc1Cl
Growth Rate: 0
//
compound: C[C@]12CCC(=O)C=C1CC[C@@H]1[C@@H]2[C@@H](O)C[C@]2(C=O)[C@@H](C(=O)CO)CC[C@@H]12 [ALDOSTERONE]
Growth Rate: 0
//
compound: CCCCCNC(=O)NS(=O)(=O)c1cc([N+](=O)[O-])ccc1NC1CCCCC1
Growth Rate: 0
//
compound: CN(C)C(=O)c1cc2cnc(Nc3ccc(N4CCNCC4)cn3)nc2n1C1CCCC1 [RIBOCICLIB]
Growth Rate: 0
//
compound: O=C1NCN(c2ccccc2)C12CCN(CC1COc3ccccc3O1)CC2 (centres undefined) [SPIROXATRINE]
Growth Rate: 0

Next item in the queue.
Req: In one line, give reported Growth Rate of the entry CC(C)(C(=O)O)c1ccc(C(O)CCCN2CCC(C(O)(c3ccccc3)c3ccccc3)CC2)cc1.Cl (centres undefined) [FEXOFENADINE HYDROCHLORIDE] .
Resp: 1

---

# Tested on: U2OS
# experimental protocol: Multiplex assay against U2OS
# Assay type: toxicity, cell-based
# particulars: human, 24 h, 10 µM, compound concentration 10 uM, replicate 2
property name: Population Pyknosed Nuclei (%)
State the value, then name its unit.

Solved cases (3 shown):
mol smiles: CCCn1c(=O)c2[nH]c(-c3cnn(Cc4cccc(C(F)(F)F)c4)c3)nc2n(CC)c1=O
result: 10%
--
mol smiles: COc1ccc(S(=O)(=O)N(CCO)c2ccccc2CN(C)C/C=C/c2ccc(Cl)cc2)cc1.O=P(O)(O)O
result: 9%
--
mol smiles: Cn1nc(C(F)(F)F)cc1-c1cnc(N2CCc3cc(S(=O)(=O)Nc4c(F)cc(Cl)cc4F)cc(N4CCCC4=O)c32)nc1
result: 5%

Req: In one line, give reported Population Pyknosed Nuclei (%) of the entry "CN1CCN(C(=O)C(C)(C)c2ccc(C(=O)Nc3cn4cc(-c5cc(C(C)(C)C)cc(C(C)(C)C)c5)ccc4n3)cc2)CC1" .
Resp: 10%

Req: In one line, give reported Population Pyknosed Nuclei (%) of the entry "O=C(Nc1ccc(-n2nc(-c3cccnc3)cc2C(F)(F)F)cn1)c1ccc(-c2ccccc2)c(F)c1" .
Resp: 3%

Req: In one line, give reported Population Pyknosed Nuclei (%) of the entry "CCc1cccc(CC)c1NC(=O)c1nn(C)c2c1CCc1cnc(Nc3ccc(C(=O)NC4CCN(C)CC4)cc3OC(F)(F)F)nc1-2" .
Resp: 20%

Req: In one line, give reported Population Pyknosed Nuclei (%) of the entry "Cc1cc(C)c(S(=O)(=O)N(Cc2ccc(-c3cccc(S(C)(=O)=O)c3)cc2)Cc2ccc(C(F)(F)F)o2)c(C)c1" .
Resp: 13%

Req: In one line, give reported Population Pyknosed Nuclei (%) of the entry "CN1CCN(C(=O)C(C)(C)c2ccc(C(=O)Nc3cn4cc(-c5ccncc5)ccc4n3)cc2)CC1" .
Resp: 11%

Req: In one line, give reported Population Pyknosed Nuclei (%) of the entry "NC(=O)c1cccc(-c2cc(Nc3ccc(OC(F)(F)F)cc3)ncn2)c1" .
Resp: 7%

Req: In one line, give reported Population Pyknosed Nuclei (%) of the entry "COCC(=O)NC/C=C/c1ccc2ncnc(Nc3ccc(Oc4ccc(C)nc4)c(C)c3)c2c1" .
Resp: 28%

Req: In one line, give reported Population Pyknosed Nuclei (%) of the entry "O=C(Nc1cccnn1)N1CCC(=Cc2cccc(Oc3ccc(C(F)(F)F)cn3)c2)CC1" .
Resp: 5%

Req: In one line, give reported Population Pyknosed Nuclei (%) of the entry "COc1ccc(-c2ccc3c(N4CCOCC4)nc(N4C[C@@H](C)O[C@@H](C)C4)nc3n2)cc1CO" .
Resp: 6%

Req: In one line, give reported Population Pyknosed Nuclei (%) of the entry "S=C(NCCCc1c[nH]cn1)NCCCN(Cc1ccc(Cl)c(Cl)c1)c1ccc(Br)cn1" .
Resp: 62%

Req: In one line, give reported Population Pyknosed Nuclei (%) of the entry "C=CCn1c(=O)c2cnc(Nc3ccc(N4CCN(C)CC4)cc3)nc2n1-c1cccc(C(C)(C)O)n1" .
Resp: 42%

Req: In one line, give reported Population Pyknosed Nuclei (%) of the entry "COC(=N)c1nc2ccc3ncnc(Nc4ccc(OC)cc4F)c3c2s1" .
Resp: 3%

Req: In one line, give reported Population Pyknosed Nuclei (%) of the entry "Cc1cn(-c2cc(NC(=O)c3ccc(C)c(Nc4nccc(-c5cccnc5)n4)c3)cc(C(F)(F)F)c2)cn1" .
Resp: 4%
